- Test system: T-47D spheroids with HUVEC/MSC, viability
- procedure details: Anticancer human tumor T-47D cell line growth inhibition [PI3K]
- recorded conditions: second compound 1 µM; first compound 0.1 µM; hits give low values

{"compound": "CC(C)NCC(C(=O)N1CCN(c2ncnc3c2C(C)CC3O)CC1)c1ccc(Cl)cc1 (stereo unspecified) + CC(Nc1ccc2c(c1)OCCn1cc(N3C(=O)OCC3C(F)F)nc1-2)C(N)=O", "target": "T-47D spheroids with HUVEC/MSC, viability", "unit name": "%", "viability, T/C": 46.8}
{"compound": "CCCS(=O)(=O)Nc1ccc(F)c(C(=O)c2c[nH]c3ncc(-c4ccc(Cl)cc4)cc23)c1F + COc1c(OCCCN2CCOCC2)ccc2c3n(c(=NC(=O)c4cnc(N)nc4)nc12)CCN3", "target": "T-47D spheroids with HUVEC/MSC, viability", "unit name": "%", "viability, T/C": 9.03}
{"compound": "CCCS(=O)(=O)Nc1ccc(F)c(C(=O)c2c[nH]c3ncc(-c4ccc(Cl)cc4)cc23)c1F + CC(Nc1ncnc2nc[nH]c12)c1cc2cccc(Cl)c2c(=O)n1-c1ccccc1", "target": "T-47D spheroids with HUVEC/MSC, viability", "unit name": "%", "viability, T/C": 106}
{"compound": "C#Cc1c(F)ccc2cc(O)cc(-c3ncc4c(N5CC6CCC(C5)N6)nc(OCC56CCCN5CC(F)C6)nc4c3F)c12 (stereo unspecified) + CC(Nc1ncnc2nc[nH]c12)c1cc2cccc(Cl)c2c(=O)n1-c1ccccc1", "target": "T-47D spheroids with HUVEC/MSC, viability", "unit name": "%", "viability, T/C": 116}
{"compound": "C[C@@H](NC(=O)c1ncnc(N)c1Cl)c1ncc(C(=O)Nc2cc(C(F)(F)F)c(Cl)cn2)s1 + Cc1nc(NC(=O)N2CCCC2C(N)=O)sc1-c1ccnc(C(C)(C)C(F)(F)F)c1", "target": "T-47D spheroids with HUVEC/MSC, viability", "unit name": "%", "viability, T/C": 86.7}
{"compound": "CC(=O)c1c(C)c2cnc(Nc3ccc(N4CCNCC4)cn3)nc2n(C2CCCC2)c1=O + Cc1nc(NC(=O)N2CCCC2C(N)=O)sc1-c1ccnc(C(C)(C)C(F)(F)F)c1", "target": "T-47D spheroids with HUVEC/MSC, viability", "unit name": "%", "viability, T/C": 61.8}

* * *

This section presents compounds with their documented viability, T/C values.
- Tested on: T-47D spheroids with HUVEC/MSC, viability
- procedure details: Anticancer human tumor T-47D cell line growth inhibition [PI3K]
- recorded conditions: second compound 0.1 µM; first compound 0.316 µM; hits give low values

{"compound": "Cn1ncc(Cl)c1-c1cc(C(=O)NC(CN)Cc2cccc(F)c2)sc1Cl (stereo not drawn) + COc1c(OCCCN2CCOCC2)ccc2c3n(c(=NC(=O)c4cnc(N)nc4)nc12)CCN3", "unit name": "%", "viability, T/C": 39.4}
{"compound": "Cn1ncc(Cl)c1-c1cc(C(=O)NC(CN)Cc2cccc(F)c2)sc1Cl (stereo not drawn) + CC(Nc1ccc2c(c1)OCCn1cc(N3C(=O)OCC3C(F)F)nc1-2)C(N)=O", "unit name": "%", "viability, T/C": 71.8}
{"compound": "CCN1CCN(Cc2ccc(Nc3ncc(F)c(-c4cc(F)c5nc(C)n(C(C)C)c5c4)n3)nc2)CC1 + CC(Nc1ncnc2nc[nH]c12)c1cc2cccc(Cl)c2c(=O)n1-c1ccccc1", "unit name": "%", "viability, T/C": 88.5}

* * *

- Tested on: T-47D spheroids with HUVEC/MSC, viability
- procedure details: Anticancer human tumor T-47D cell line growth inhibition [PI3K];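 note: spheroids exposed to agents for seven days before reading; percent of DMSO vehicle control luminescence so 100% = untreated growth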
- recorded conditions: second compound 0.1 µM; first compound 0.1 µM; hits give low values
The compounds listed here are annotated with their viability, T/C.

{"compound": "CC(C)n1nc(-c2ccc3oc(N)nc3c2)c2c(N)ncnc21 + CC(Nc1ccc2c(c1)OCCn1cc(N3C(=O)OCC3C(F)F)nc1-2)C(N)=O", "unit name": "%", "viability, T/C": 17}
{"compound": "C#Cc1c(F)ccc2cc(O)cc(-c3ncc4c(N5CC6CCC(C5)N6)nc(OCC56CCCN5CC(F)C6)nc4c3F)c12 (stereo not drawn) + CC(Nc1ncnc2nc[nH]c12)c1cc2cccc(Cl)c2c(=O)n1-c1ccccc1", "unit name": "%", "viability, T/C": 86.3}
{"compound": "C[C@@H](NC(=O)c1ncnc(N)c1Cl)c1ncc(C(=O)Nc2cc(C(F)(F)F)c(Cl)cn2)s1 + CC(Nc1ccc2c(c1)OCCn1cc(N3C(=O)OCC3C(F)F)nc1-2)C(N)=O", "unit name": "%", "viability, T/C": 82}

* * *

- System: T-47D spheroids with HUVEC/MSC, viability
- procedure details: Anticancer human tumor T-47D cell line growth inhibition [PI3K];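 note: spheroids exposed to agents for seven days before reading; percent of DMSO vehicle control luminescence so 100% = untreated growth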
- recorded conditions: second compound 0.1 µM; first compound 0.316 µM; hits give low values

{"compound": "C[C@@H](NC(=O)c1ncnc(N)c1Cl)c1ncc(C(=O)Nc2cc(C(F)(F)F)c(Cl)cn2)s1 + Cc1nc(NC(=O)N2CCCC2C(N)=O)sc1-c1ccnc(C(C)(C)C(F)(F)F)c1", "unit name": "%", "viability, T/C": 105}
{"compound": "CC(C)NCC(C(=O)N1CCN(c2ncnc3c2C(C)CC3O)CC1)c1ccc(Cl)cc1 (stereo not given) + COc1c(OCCCN2CCOCC2)ccc2c3n(c(=NC(=O)c4cnc(N)nc4)nc12)CCN3", "unit name": "%", "viability, T/C": 34.3}
{"compound": "CC1(C)CCC(Nc2ncc(C(F)(F)F)c(-c3c[nH]c4c(P(C)(C)=O)c(C#N)ccc34)n2)CN1 (stereo not given) + CC(Nc1ccc2c(c1)OCCn1cc(N3C(=O)OCC3C(F)F)nc1-2)C(N)=O", "unit name": "%", "viability, T/C": 46.3}
{"compound": "Cn1nccc1Nc1nccc(-c2ccn(C(CO)c3ccc(Cl)c(F)c3)c(=O)c2)n1 (stereo not given) + COc1c(OCCCN2CCOCC2)ccc2c3n(c(=NC(=O)c4cnc(N)nc4)nc12)CCN3", "unit name": "%", "viability, T/C": 38.3}
{"compound": "C=CC(=O)N1CCN(c2nc(=O)n(-c3c(C)ccnc3C(C)C)c3nc(-c4c(O)cccc4F)c(F)cc23)C(C)C1 (stereo not given) + Cc1nc(NC(=O)N2CCCC2C(N)=O)sc1-c1ccnc(C(C)(C)C(F)(F)F)c1", "unit name": "%", "viability, T/C": 97.2}

* * *

- System: T-47D spheroids with HUVEC/MSC, viability
- procedure details: Anticancer human tumor T-47D cell line growth inhibition [PI3K];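 note: spheroids exposed to agents for seven days before reading; percent of DMSO vehicle control luminescence so 100% = untreated growth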
- recorded conditions: second compound 1 µM; first compound 0.001 µM; hits give low values
Binning scheme for viability, T/C: bin A = under 50%, bin B = from 50% up to 90%, bin C = 90% and over

{"molecule": "CC(C)n1nc(-c2ccc3oc(N)nc3c2)c2c(N)ncnc21 + COc1c(OCCCN2CCOCC2)ccc2c3n(c(=NC(=O)c4cnc(N)nc4)nc12)CCN3", "assigned category": "bin A"}
{"molecule": "CC(=O)c1c(C)c2cnc(Nc3ccc(N4CCNCC4)cn3)nc2n(C2CCCC2)c1=O + COc1c(OCCCN2CCOCC2)ccc2c3n(c(=NC(=O)c4cnc(N)nc4)nc12)CCN3", "assigned category": "bin A"}
{"molecule": "CC(C)n1nc(-c2ccc3oc(N)nc3c2)c2c(N)ncnc21 + CC(Nc1ncnc2nc[nH]c12)c1cc2cccc(Cl)c2c(=O)n1-c1ccccc1", "assigned category": "bin C"}
{"molecule": "Cn1ncnc1[C@H]1c2n[nH]c(=O)c3cc(F)cc(c23)N[C@@H]1c1ccc(F)cc1 + COc1c(OCCCN2CCOCC2)ccc2c3n(c(=NC(=O)c4cnc(N)nc4)nc12)CCN3", "assigned category": "bin A"}
{"molecule": "CC(=O)c1c(C)c2cnc(Nc3ccc(N4CCNCC4)cn3)nc2n(C2CCCC2)c1=O + CC(Nc1ccc2c(c1)OCCn1cc(N3C(=O)OCC3C(F)F)nc1-2)C(N)=O", "assigned category": "bin B"}
{"molecule": "CC(C)n1nc(-c2ccc3oc(N)nc3c2)c2c(N)ncnc21 + Cc1nc(NC(=O)N2CCCC2C(N)=O)sc1-c1ccnc(C(C)(C)C(F)(F)F)c1", "assigned category": "bin C"}
{"molecule": "CC(C)n1nc(-c2ccc3oc(N)nc3c2)c2c(N)ncnc21 + CC(Nc1ccc2c(c1)OCCn1cc(N3C(=O)OCC3C(F)F)nc1-2)C(N)=O", "assigned category": "bin B"}
{"molecule": "CC(=O)c1c(C)c2cnc(Nc3ccc(N4CCNCC4)cn3)nc2n(C2CCCC2)c1=O + CC(Nc1ncnc2nc[nH]c12)c1cc2cccc(Cl)c2c(=O)n1-c1ccccc1", "assigned category": "bin B"}

* * *

This section presents compounds with their documented viability, T/C values.
- System: T-47D spheroids with HUVEC/MSC, viability
- procedure details: Anticancer human tumor T-47D cell line growth inhibition [PI3K];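 note: spheroids exposed to agents for seven days before reading; percent of DMSO vehicle control luminescence so 100% = untreated growth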
- recorded conditions: compound 0.1 µM; hits give low values

{"compound": "C=CC(=O)N1CCN(c2nc(=O)n(-c3c(C)ccnc3C(C)C)c3nc(-c4c(O)cccc4F)c(F)cc23)C(C)C1 (stereo not drawn)", "viability, T/C": "96.8% [middle of 4 runs]"}
{"compound": "CC1(C)CCC(Nc2ncc(C(F)(F)F)c(-c3c[nH]c4c(P(C)(C)=O)c(C#N)ccc34)n2)CN1 (stereo not drawn)", "viability, T/C": "72% [middle of 4 runs]"}
{"compound": "CC1(C)CCC(CN2CCN(c3ccc(C(=O)NS(=O)(=O)c4ccc(NCC5CCOCC5)c([N+](=O)[O-])c4)c(Oc4cnc5[nH]ccc5c4)c3)CC2)=C(c2ccc(Cl)cc2)C1", "viability, T/C": "99% [middle of 4 runs]"}
{"compound": "CCN1CCN(Cc2ccc(Nc3ncc(F)c(-c4cc(F)c5nc(C)n(C(C)C)c5c4)n3)nc2)CC1", "viability, T/C": "90.4% [middle of 4 runs]"}
{"compound": "CCCS(=O)(=O)Nc1ccc(F)c(C(=O)c2c[nH]c3ncc(-c4ccc(Cl)cc4)cc23)c1F", "viability, T/C": "94.3% [middle of 4 runs]"}
{"compound": "COc1c(OCCCN2CCOCC2)ccc2c3n(c(=NC(=O)c4cnc(N)nc4)nc12)CCN3", "viability, T/C": "45.4% [middle of 8 runs]"}
{"compound": "CC(=O)c1c(C)c2cnc(Nc3ccc(N4CCNCC4)cn3)nc2n(C2CCCC2)c1=O", "viability, T/C": "86.7% [middle of 4 runs]"}
{"compound": "Cc1nc(NC(=O)N2CCCC2C(N)=O)sc1-c1ccnc(C(C)(C)C(F)(F)F)c1 (stereo not drawn)", "viability, T/C": "96.2% [middle of 8 runs]"}
